# measured target: OsWOX13 (Oryza sativa, UniProt Q5QMM3 1-267)
# Sequence: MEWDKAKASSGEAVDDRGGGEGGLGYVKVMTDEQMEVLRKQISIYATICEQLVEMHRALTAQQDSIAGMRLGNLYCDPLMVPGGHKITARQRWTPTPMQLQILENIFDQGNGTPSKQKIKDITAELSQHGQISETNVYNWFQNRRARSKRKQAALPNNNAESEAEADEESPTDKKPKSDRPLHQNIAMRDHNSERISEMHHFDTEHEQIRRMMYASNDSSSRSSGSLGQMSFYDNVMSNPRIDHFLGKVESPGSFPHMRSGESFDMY
# assay name: protein-binding microarray (RPBM); PBS, 2% BSA, 51.3 ng/ul salmon testes DNA, 50 uM zinc acetate, 200 nM TF, 25 C, 1 h; high values mean tight binding
# condition summary: protein: recombinant; tags: N-terminal polyhistidine and DsRed monomer fusion (pET32a); label: CyDye5-dUTP incorporated in the synthesized complementary strand; 3' TTTTT single-stranded linker to array surface; dsDNA, one strand shown
Whole data set: some 35,000 sequences, median “fluorescence intensity (a.u.)” near 10,000, cut for the highest 2% near 52,000. Shown is part of a subset that was picked to be rich in the highest values.
quantity measured: binding signal

Some sequences with recorded binding signal:
[
  {
    "construct sequence": "CAGATAATTAGCTACCTGTTTAATAGATCATCTTGATCATCGGAGTCACCTAGTGCAG",
    "measured target": "OsWOX13 (Oryza sativa, UniProt Q5QMM3 1-267)",
    "binding signal": "53400 fluorescence intensity (a.u.)"
  },
  {
    "construct sequence": "CACTAATTGATCAATTGCACAACAAATTGCTTGAATAACGCGGAGTCACCTAGTGCAG",
    "measured target": "OsWOX13 (Oryza sativa, UniProt Q5QMM3 1-267)",
    "binding signal": "59900 fluorescence intensity (a.u.)"
  }
]

Q) Tell me reported binding signal for ATCCGTCATCTGATTTAATCTCATACGTCCGCTATCCTCCCGGAGTCACCTAGTGCAG , tested with OsWOX13 (Oryza sativa, UniProt Q5QMM3 1-267).
A) 4210 fluorescence intensity (a.u.)

Q) Tell me reported binding signal for AAACTGTTTTAATAATAGATAGATAGATAGATAGATAGATCGGAGTCACCTAGTGCAG , tested with OsWOX13 (Oryza sativa, UniProt Q5QMM3 1-267).
A) 18200 fluorescence intensity (a.u.)

Q) Tell me reported binding signal for GTAAAAGTTAATTGATTTGTTTATACCCTCAAATAGCCATCGGAGTCACCTAGTGCAG , tested with OsWOX13 (Oryza sativa, UniProt Q5QMM3 1-267).
A) 58700 fluorescence intensity (a.u.)

###

# measured target: OsWOX13 (Oryza sativa, UniProt Q5QMM3 1-267)
# Sequence: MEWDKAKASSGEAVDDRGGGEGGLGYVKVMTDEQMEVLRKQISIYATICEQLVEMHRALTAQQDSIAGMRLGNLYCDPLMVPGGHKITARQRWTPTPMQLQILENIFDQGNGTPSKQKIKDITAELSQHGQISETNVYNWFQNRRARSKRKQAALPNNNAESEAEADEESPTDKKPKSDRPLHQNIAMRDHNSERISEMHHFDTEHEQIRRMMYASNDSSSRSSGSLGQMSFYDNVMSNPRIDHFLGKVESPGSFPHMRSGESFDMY
# assay name: protein-binding microarray (RPBM); PBS, 2% BSA, 51.3 ng/ul salmon testes DNA, 50 uM zinc acetate, 200 nM TF, 25 C, 1 h; high values mean tight binding
# condition summary: protein: recombinant; tags: N-terminal polyhistidine and DsRed monomer fusion (pET32a); label: CyDye5-dUTP incorporated in the synthesized complementary strand; 3' TTTTT single-stranded linker to array surface; dsDNA, one strand shown
Over roughly 35,000 sequences, “fluorescence intensity (a.u.)” has its median near 10,000; the highest 2% begin near 52,000. This is one part of a sample in which the highest values are shown more often than they occur.
quantity measured: binding signal

Some sequences with recorded binding signal:
[
  {
    "construct sequence": "ATTGATAACGGCAGACTAACTGATACGACAGAGATGGTCACGGAGTCACCTAGTGCAG",
    "binding signal": "7620 fluorescence intensity (a.u.)"
  },
  {
    "construct sequence": "TGGAAGAAATTGATGTAATGCTCTGGCCTTTTCATGGATACGGAGTCACCTAGTGCAG",
    "binding signal": "8100 fluorescence intensity (a.u.)"
  },
  {
    "construct sequence": "TAGTAGATTGATTTCCTTAACCGAATATAGCAGGAATCCGCGGAGTCACCTAGTGCAG",
    "binding signal": "52900 fluorescence intensity (a.u.)"
  }
]

Q) Any idea what binding signal was measured for AACTTATAAATTGATTTATAAGTCTAAATAAAGAGGCACCCGGAGTCACCTAGTGCAG ?
A) 55800 fluorescence intensity (a.u.)

Q) Any idea what binding signal was measured for GTGTTGTGATTCAATTAATTTGGCAGACACCAATTTGCTGCGGAGTCACCTAGTGCAG ?
A) 23200 fluorescence intensity (a.u.)

Q) Any idea what binding signal was measured for AGGCACTAAAATAATCTAATTGATTAACTAATCGGTCACCCGGAGTCACCTAGTGCAG ?
A) 25300 fluorescence intensity (a.u.)

Q) Any idea what binding signal was measured for ATTTAACGTCATTTATAAACATATACTAGATACTAGTAATCGGAGTCACCTAGTGCAG ?
A) 3890 fluorescence intensity (a.u.)

Q) Any idea what binding signal was measured for TCTTCTGATTGCTTTCACACAAGATCCAGCAAAATTAATTCGGAGTCACCTAGTGCAG ?
A) 16900 fluorescence intensity (a.u.)

Q) Any idea what binding signal was measured for GCATCGGAATTTTGGATGTGATTGCCTGCATCGGATGGATCGGAGTCACCTAGTGCAG ?
A) 18200 fluorescence intensity (a.u.)

Q) Any idea what binding signal was measured for GTACATGAATTTTGATTAATTGCTAATTTTACATATGGATCGGAGTCACCTAGTGCAG ?
A) 26000 fluorescence intensity (a.u.)

Q) Any idea what binding signal was measured for AATACTTGCAAATTAGCTAACTAGTTCTCCTAATTGAGCCCGGAGTCACCTAGTGCAG ?
A) 9350 fluorescence intensity (a.u.)

Q) Any idea what binding signal was measured for CACTCTTGCATTTCTTTGATTGCAAATTTCCAAGGCAGAACGGAGTCACCTAGTGCAG ?
A) 5250 fluorescence intensity (a.u.)

Q) Any idea what binding signal was measured for TATGATTGGCATGGCCTGAATGGATGGATGAATTTTGGATCGGAGTCACCTAGTGCAG ?
A) 58500 fluorescence intensity (a.u.)

Q) Any idea what binding signal was measured for ATCTGGCAATAATTTACAATTAATTGATACCTTATTGCCTCGGAGTCACCTAGTGCAG ?
A) 54800 fluorescence intensity (a.u.)

Q) Any idea what binding signal was measured for GTTTCTAATTAACTAAATTAATTAATTAGCATGATTGGTCCGGAGTCACCTAGTGCAG ?
A) 64700 fluorescence intensity (a.u.)
